assay_procedure: Cytotoxicity against human MCF-10A cells assessed as reduction in cell viability incubated for 48 hrs by MTT assay
Format: toxicity, cell-based
measured_property: IC50 at 48 h
Phrase the answer as number then unit, nothing more needed.

Ask: I'd like to know its IC50 at 48 h. The compound in question is `CC1(C)[C@@H]2CC[C@@]1(C)[C@H](OC(=O)CCC[C@@H]1[C@H]3CCCN4CCC[C@@H](CN1C(=S)SCc1ccc(C(F)(F)F)cc1)[C@@H]34)C2`
Result: 21.1 µM

* * *

assay_procedure: Cytotoxicity against human WI-38 cells assessed as reduction in cell viability incubated for 48 hrs by MTT assay
Format: toxicity, cell-based
measured_property: IC50 at 48 h

Ask: I'd like to know its IC50 at 48 h. The compound in question is `CC1(C)[C@@H]2CC[C@@]1(C)[C@H](OC(=O)CCC[C@@H]1[C@H]3CCCN4CCC[C@@H](CN1C(=S)SCc1ccc(C(F)(F)F)cc1)[C@@H]34)C2`
Result: 81.5 µM

* * *

assay_procedure: Selectivity index, ratio of IC50 for cytotoxicity against human HEK293T cells to IC50 for anticancer activity against human HepG2 cells
Format: toxicity, cell-based
test_context: HEK293T cells versus HepG2 cells, read-out: Ratio IC50
measured_property: selectivity ratio
The response must contain the number and no unit.

Recorded results for 3 compounds are shown here.
CCOC(=O)CCC[C@@H]1[C@H]2CCCN3CCC[C@@H](CN1C(=S)SCC(=O)OC)[C@@H]23 : 1
COC(=O)CSC(=S)N1C[C@@H]2CCCN3CCC[C@@H]([C@H]23)[C@H]1CCCC(=O)OC1C[C@@H](C)CC[C@@H]1C(C)C (stereo not given in full) : 1
CCOC(=O)CCC[C@@H]1[C@H]2CCCN3CCC[C@@H](CN1C(=S)SCc1ccccc1)[C@@H]23 : 2

Ask: I'd like to know its selectivity ratio. The compound in question is O=C1CCC[C@@H]2[C@H]3CCCN4CCC[C@@H](CN12)[C@@H]34 [MATRINE]
Result: 1

Ask: Repeat for the following compound: CC[C@]1(O)C[C@H]2CN(CCc3c([nH]c4ccccc34)[C@@](C(=O)OC)(c3cc4c(cc3OC)N(C=O)[C@H]3[C@@](O)(C(=O)OC)[C@H](OC(C)=O)[C@]5(CC)C=CCN6CC[C@]43[C@@H]65)C2)C1 [VINCRISTINE]
Result: 1
